System: NCI-H460
assay.name: Induction of autophagy in human H460 cells assessed as nuclear and acidic compartment morphology at 80 uM after 24 hrs
Type: functional, cell-based
Calls of active or inactive are those of the source. The rule behind the calls is not given here.
measurement.label: Activity

Some solved entries appear below for comparison.
INSERT INTO results (compound, assay_result) VALUES
  ('NNC(=O)c1cc(-c2ccccc2)nn1CC(O)COc1ccc([N+](=O)[O-])cc1 (stereo not drawn)', 'Active'),
  ('NNC(=O)c1cc(-c2ccc(Cl)cc2)nn1CC(O)COc1ccc([N+](=O)[O-])cc1 (stereo not drawn)', 'Active'),
  ('COc1ccccc1OCC(O)Cn1nc(-c2ccc(Cl)cc2)cc1C(=O)NN (stereo not drawn)', 'Active'),
  ('NNC(=O)c1cc(-c2ccccc2)nn1CC(O)COc1ccc(Cl)cc1 (stereo not drawn)', 'Active'),
  ('COc1ccccc1OCC(O)Cn1nc(-c2ccccc2)cc1C(=O)NN (stereo not drawn)', 'Active');

Please give Activity for each item listed below.
1. COc1ccc(-c2cc(C(=O)NN)n(CC(O)COc3ccc(Cl)cc3)n2)cc1 (stereo not drawn)
2. NNC(=O)c1cc(-c2ccc(Cl)cc2)nn1CC(O)COc1ccc(Cl)cc1 (stereo not drawn)
3. COc1ccc(-c2cc(C(=O)NN)n(CC(O)COc3ccccc3OC)n2)cc1 (stereo not drawn)

["Active", "Active", "Active"]
